- SUBJECT OF TEST: human ether-à-go-go-related gene (hERG) potassium channel (human)
- Sequence (Q12809 whole entry, looked up): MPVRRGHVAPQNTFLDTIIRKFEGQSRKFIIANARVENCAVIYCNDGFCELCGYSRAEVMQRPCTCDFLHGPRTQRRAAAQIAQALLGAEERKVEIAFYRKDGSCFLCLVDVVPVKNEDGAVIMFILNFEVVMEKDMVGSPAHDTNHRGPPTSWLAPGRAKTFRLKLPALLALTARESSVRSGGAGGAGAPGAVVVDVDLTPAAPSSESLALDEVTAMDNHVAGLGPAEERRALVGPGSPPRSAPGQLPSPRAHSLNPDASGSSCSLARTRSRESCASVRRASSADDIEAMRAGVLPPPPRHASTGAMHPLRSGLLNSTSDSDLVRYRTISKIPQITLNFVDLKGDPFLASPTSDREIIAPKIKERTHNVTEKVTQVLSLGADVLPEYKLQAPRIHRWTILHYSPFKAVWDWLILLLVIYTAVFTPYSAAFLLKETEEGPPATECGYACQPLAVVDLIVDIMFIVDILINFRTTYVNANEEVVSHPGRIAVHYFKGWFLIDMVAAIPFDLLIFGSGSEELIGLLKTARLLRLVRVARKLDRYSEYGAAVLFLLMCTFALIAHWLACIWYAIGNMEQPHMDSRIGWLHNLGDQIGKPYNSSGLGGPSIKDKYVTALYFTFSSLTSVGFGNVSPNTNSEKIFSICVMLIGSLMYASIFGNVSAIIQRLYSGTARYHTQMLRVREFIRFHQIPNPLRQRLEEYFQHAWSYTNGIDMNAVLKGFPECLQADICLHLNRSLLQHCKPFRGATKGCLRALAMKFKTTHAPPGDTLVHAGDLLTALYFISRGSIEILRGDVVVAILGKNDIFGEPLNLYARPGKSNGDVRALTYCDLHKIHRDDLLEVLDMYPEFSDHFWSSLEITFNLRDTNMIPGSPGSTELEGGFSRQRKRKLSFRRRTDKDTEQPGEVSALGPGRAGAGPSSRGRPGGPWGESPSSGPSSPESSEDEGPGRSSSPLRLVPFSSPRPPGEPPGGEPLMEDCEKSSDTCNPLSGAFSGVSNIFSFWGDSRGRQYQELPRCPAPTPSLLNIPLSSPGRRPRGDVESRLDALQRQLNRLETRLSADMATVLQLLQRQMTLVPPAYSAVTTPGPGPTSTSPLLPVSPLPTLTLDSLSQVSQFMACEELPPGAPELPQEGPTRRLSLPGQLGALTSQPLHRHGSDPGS
- EXPERIMENT: primary screen, population patch clamp on CHO cells stably expressing hERG; higher = less effect of the substance;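 note: peak tail current of the secondary pulse compared with the same well before compound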
- Experimental: Briefly, Chinese hamster ovary (CHO) cells stably expressing the hERG channel were dislodged from tissue culture flasks and dispensed into PPC plates. […] During the recording, background leak currents were estimated by a 100 ms step to -80 mV from an initial holding potential of -70 mV and subtracted from the subsequent current measurement. The campaign was conducted in two phases using slight differences in recording protocol. […]
The whole screen tested about 310,000 compounds, of which about 14,000 (4.5%) showed an effect of 50% or more. Effects have a minus sign here. Many of the other results were omitted from the sample, so strong results are more common in it than they were.
OUTCOME MEASURE: hERG current change (%, negative = inhibition) at 10uM (%)
Quick reminder: number only, in %, skip the unit.

Here are 4 molecules together with their reported answers.
MOLECULE: Cc1ccc(NC(=O)Cn2nc(C(=O)Nc3ccc(C)cc3)ccc2=O)cc1
SUBJECT OF TEST: human ether-à-go-go-related gene (hERG) potassium channel (human)
DISPLAY UNIT: %
RECORDED MEASUREMENT: 10.8

MOLECULE: CC(=O)Nc1ccc(S(=O)(=O)NCCc2c[nH]c3ccc(C)cc23)cc1
SUBJECT OF TEST: human ether-à-go-go-related gene (hERG) potassium channel (human)
DISPLAY UNIT: %
RECORDED MEASUREMENT: 26.2

MOLECULE: CC1CCCC(NC(=O)c2ccc(COc3ccccc3)o2)C1C (centres unmarked)
SUBJECT OF TEST: human ether-à-go-go-related gene (hERG) potassium channel (human)
DISPLAY UNIT: %
RECORDED MEASUREMENT: 0.0111

MOLECULE: CCN(CC)CCCNC(=O)c1cc2c(=O)n(CC)c3ccccc3c2s1
SUBJECT OF TEST: human ether-à-go-go-related gene (hERG) potassium channel (human)
DISPLAY UNIT: %
RECORDED MEASUREMENT: -14.9

// moving on: another record for hERG current change (%, negative = inhibition) at 10uM
Data request: Need hERG current change (%, negative = inhibition) at 10uM, item O=C(CSc1nc2cc(Cl)ccc2s1)NCc1ccc2c(c1)OCO2
Data returned: 0.137
